src = ChEMBL document CHEMBL4138123

system: K562; experiment: Cytotoxicity against human K562 cells assessed as cell growth at 10 uM after 48 hrs by sulforhodamine B assay relative to control; assay type: functional; details: K562, 48 h, read-out: Activity
Provide the recorded growth at 10 µM for the entries that follow.
// return numeric value only (unit: %, not printed)

Challenge: Annotate the compound "COc1cc(C(=O)/C=C/c2cc(-c3ccc4c(c3)OCO4)n[nH]2)cc(OC)c1OC" with its measured growth at 10 µM.
Response given: 3

Challenge: Annotate the compound "COc1cc(-c2cc(/C=C/C(=O)c3ccc(Cl)c(Cl)c3)[nH]n2)cc(OC)c1OC" with its measured growth at 10 µM.
Response given: 28

Challenge: Annotate the compound "COc1ccc(C(=O)/C=C/c2cc(-c3cc(OC)c(OC)c(OC)c3)n[nH]2)cc1" with its measured growth at 10 µM.
Response given: -17

Challenge: Annotate the compound "COc1ccc(C(=O)/C=C/c2cc(-c3cc(OC)c(OC)c(OC)c3)n[nH]2)cc1OC" with its measured growth at 10 µM.
Response given: -13
